What viability, T/C was measured for each of the following?
Test system: IGROV1 complex spheroids (HUVEC, MSC), viability % test/control
assay-overview: Anticancer human tumor IGROV1 cell line growth inhibition [GQUAD];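 further: spheroids exposed to compounds for 7 days before readout; 100% = DMSO vehicle control viability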
experimental-conditions: second compound 0.316 µM; first compound 0.0316 µM; hits give low values
Kindly answer with a numeric value in %, unit omitted.

Task: What does the data say about its viability, T/C? Entry: CC1COCCN1c1cc(C2(S(C)(=N)=O)CC2)nc(-c2ccnc3[nH]ccc23)n1 (centres undefined) + Cc1cnc(CNC(=O)c2c(=O)c3ccc(N4CCCN(C)CC4)nc3n3c2sc2ccccc23)cn1
Output: 26.8

Task: Any idea what viability, T/C was measured for COc1cccc2c1C(=O)c1c(O)c3c(c(O)c1C2=O)CC(O)(C(=O)CO)CC3OC1CC(N)C(O)C(C)O1 (centres undefined) + Cc1cnc(CNC(=O)c2c(=O)c3ccc(N4CCCN(C)CC4)nc3n3c2sc2ccccc23)cn1 ?
Output: 18.7

Task: # query: viability, T/C of entry O=C(c1cc(Cc2n[nH]c(=O)c3ccccc23)ccc1F)N1CCN(C(=O)C2CC2)CC1 + Cc1cnc(CNC(=O)c2c(=O)c3ccc(N4CCCN(C)CC4)nc3n3c2sc2ccccc23)cn1
Output: 22.4

Task: So what's the measured viability, T/C for this one? O=c1[nH]cc(F)c(=O)[nH]1 + CN(C)c1ccc(Nc2c3ccc(NC(=O)CCN4CCCC4)cc3nc3cc(NC(=O)CCN4CCCC4)ccc23)cc1
Output: 92.1

###

Tested on: IGROV1 complex spheroids (HUVEC, MSC), viability % test/control
assay-overview: Anticancer human tumor IGROV1 cell line growth inhibition [GQUAD]; active = viability on the fitted dose curve at most 10% of control; inactive = the rest;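 further: spheroids exposed to compounds for 7 days before readout; 100% = DMSO vehicle control viability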
experimental-conditions: second compound 3.16 µM; first compound 3.16 µM
Outcomes you can answer with include only these: active, inactive

Task: Record request — test call for C=CCn1c(=O)c2cnc(Nc3ccc(N4CCN(C)CC4)cc3)nc2n1-c1cccc(C(C)(C)O)n1 + Cc1[nH]c2ccc(F)cc2c1-c1nc2c3cccnc3c3ncccc3c2[nH]1
Output: active

Task: Query: recorded result category for C=CC(=O)N1CCN(c2nc(=O)n(-c3c(C)ccnc3C(C)C)c3nc(-c4c(O)cccc4F)c(F)cc23)C(C)C1 (stereo not given) + Cc1cnc(CNC(=O)c2c(=O)c3ccc(N4CCCN(C)CC4)nc3n3c2sc2ccccc23)cn1 in this test
Output: inactive

Task: Hi team, can someone confirm the assay call for Cc1cccc(N(C)C(=O)C2C(O)CCN2c2nc(C)cc(C(F)(F)F)c2C#N)c1 (stereo not given) + Cc1[nH]c2ccc(F)cc2c1-c1nc2c3cccnc3c3ncccc3c2[nH]1 ?
Output: active

Task: Query: recorded result category for CCCS(=O)(=O)Nc1ccc(F)c(C(=O)c2c[nH]c3ncc(-c4ccc(Cl)cc4)cc23)c1F + Cc1[nH]c2ccc(F)cc2c1-c1nc2c3cccnc3c3ncccc3c2[nH]1 in this test
Output: active

Task: Hi, sorry to bother you, what did the test record for COc1cc(C2c3cc4c(cc3C(OC3OC5COC(C)OC5C(O)C3O)C3COC(=O)C23)OCO4)cc(OC)c1O (stereo not given) + Cc1[nH]c2ccc(F)cc2c1-c1nc2c3cccnc3c3ncccc3c2[nH]1 ?
Output: active

Task: How was CC1COCCN1c1cc(C2(S(C)(=N)=O)CC2)nc(-c2ccnc3[nH]ccc23)n1 (stereo not given) + CN(C)c1ccc(Nc2c3ccc(NC(=O)CCN4CCCC4)cc3nc3cc(NC(=O)CCN4CCCC4)ccc23)cc1 classified in this test?
Output: inactive

Task: Name the outcome recorded for COc1ccc([C@@H](O)c2cc(-c3ncnc4cc(N5CCOCC5)ccc34)c(F)cc2Cl)nn1 + CN(C)c1ccc(Nc2c3ccc(NC(=O)CCN4CCCC4)cc3nc3cc(NC(=O)CCN4CCCC4)ccc23)cc1 in the assay.
Output: active

Task: For CC1COCCN1c1cc(C2(O)CC3CCC(C2)O3)c2cnn(-c3ccn[nH]3)c2n1 (stereo not given) + CN(C)c1ccc(Nc2c3ccc(NC(=O)CCN4CCCC4)cc3nc3cc(NC(=O)CCN4CCCC4)ccc23)cc1 , what call appears in the results of this test?
Output: active

Task: Recorded test outcome, item O=C(c1cc(Cc2n[nH]c(=O)c3ccccc23)ccc1F)N1CCN(C(=O)C2CC2)CC1 + Cc1cnc(CNC(=O)c2c(=O)c3ccc(N4CCCN(C)CC4)nc3n3c2sc2ccccc23)cn1
Output: inactive

Task: Please state the recorded outcome for this molecule: O=c1[nH]cc(F)c(=O)[nH]1 + Cc1cnc(CNC(=O)c2c(=O)c3ccc(N4CCCN(C)CC4)nc3n3c2sc2ccccc23)cn1
Output: inactive

Task: What is the recorded call for this molecule in the test? CC1COCCN1c1cc(C2(S(C)(=N)=O)CC2)nc(-c2ccnc3[nH]ccc23)n1 (stereo not given) + Cc1cnc(CNC(=O)c2c(=O)c3ccc(N4CCCN(C)CC4)nc3n3c2sc2ccccc23)cn1
Output: active

Task: Tell me the recorded outcome of this test for O=c1[nH]cc(F)c(=O)[nH]1 + Cc1[nH]c2ccc(F)cc2c1-c1nc2c3cccnc3c3ncccc3c2[nH]1 .
Output: active

Task: For COc1cc(C2c3cc4c(cc3C(OC3OC5COC(C)OC5C(O)C3O)C3COC(=O)C23)OCO4)cc(OC)c1O (stereo not given) + Cc1cnc(CNC(=O)c2c(=O)c3ccc(N4CCCN(C)CC4)nc3n3c2sc2ccccc23)cn1 , which call appears in the assay record?
Output: active

Task: // outcome(item) with item = C#Cc1c(F)ccc2cc(O)cc(-c3ncc4c(N5CC6CCC(C5)N6)nc(OCC56CCCN5CC(F)C6)nc4c3F)c12 (stereo not given) + Cc1cnc(CNC(=O)c2c(=O)c3ccc(N4CCCN(C)CC4)nc3n3c2sc2ccccc23)cn1
Output: active

Task: Assay outcome for CC1COCCN1c1cc(C2(O)CC3CCC(C2)O3)c2cnn(-c3ccn[nH]3)c2n1 (stereo not given) + Cc1[nH]c2ccc(F)cc2c1-c1nc2c3cccnc3c3ncccc3c2[nH]1 : what was it?
Output: active

Task: What did the test return for CC(=O)O[C@H]1C(=O)[C@@]2(C)[C@H]([C@H](OC(=O)c3ccccc3)[C@]3(O)C[C@H](OC(=O)[C@H](O)[C@@H](NC(=O)c4ccccc4)c4ccccc4)C(C)=C1C3(C)C)[C@]1(OC(C)=O)CO[C@@H]1C[C@@H]2O + Cc1cnc(CNC(=O)c2c(=O)c3ccc(N4CCCN(C)CC4)nc3n3c2sc2ccccc23)cn1 ?
Output: active

Task: For COc1cccc2c1C(=O)c1c(O)c3c(c(O)c1C2=O)CC(O)(C(=O)CO)CC3OC1CC(N)C(O)C(C)O1 (stereo not given) + Cc1cnc(CNC(=O)c2c(=O)c3ccc(N4CCCN(C)CC4)nc3n3c2sc2ccccc23)cn1 , what call appears in the results of this test?
Output: active

Task: What call does the record list for COc1cccc2c1C(=O)c1c(O)c3c(c(O)c1C2=O)CC(O)(C(=O)CO)CC3OC1CC(N)C(O)C(C)O1 (stereo not given) + CN(C)c1ccc(Nc2c3ccc(NC(=O)CCN4CCCC4)cc3nc3cc(NC(=O)CCN4CCCC4)ccc23)cc1 ?
Output: active

Task: Short answer needed: outcome of this test for CC(C)(O)C1CCC(Nc2ccc3ncc(-c4cccc(C(F)(F)F)c4)n3n2)CC1 (stereo not given) + Cc1cnc(CNC(=O)c2c(=O)c3ccc(N4CCCN(C)CC4)nc3n3c2sc2ccccc23)cn1 ?
Output: active

Task: # fetch the recorded call for C=CCn1c(=O)c2cnc(Nc3ccc(N4CCN(C)CC4)cc3)nc2n1-c1cccc(C(C)(C)O)n1 + CN(C)c1ccc(Nc2c3ccc(NC(=O)CCN4CCCC4)cc3nc3cc(NC(=O)CCN4CCCC4)ccc23)cc1 here
Output: active
